STUDY_TARGET: T1, cyno IL1RAP ECD displayed on HEK-293F cells (pDisplay) (cynomolgus monkey, UniProt P59822 21-367 (rhesus entry))
T1 sequence: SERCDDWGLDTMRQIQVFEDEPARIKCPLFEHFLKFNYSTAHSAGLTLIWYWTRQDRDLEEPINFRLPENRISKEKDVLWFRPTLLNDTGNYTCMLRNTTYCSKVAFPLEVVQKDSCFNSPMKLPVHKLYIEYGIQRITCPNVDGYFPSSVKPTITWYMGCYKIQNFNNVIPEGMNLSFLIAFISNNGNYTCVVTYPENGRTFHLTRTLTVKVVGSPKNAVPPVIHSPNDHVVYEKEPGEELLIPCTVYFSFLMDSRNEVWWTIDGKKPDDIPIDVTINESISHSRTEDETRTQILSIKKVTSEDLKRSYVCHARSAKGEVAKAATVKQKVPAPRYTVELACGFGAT
PROTOCOL_SUMMARY: HEK-293F cells (MSD)
METRIC: binding result

# BINDER, ASSAY_RESULT
records = [
    ("IAPB62 (antibody, human IgG4 S228P, kappa, F234A L235A, V domains shown, IgG4-PAA; whole chains) VH: QVQLVQSGSELKKPGASVKVSCKASGYTFNTYAMNWVRQAPGQGLEWMGWINTNTGNPTYAQGFTGRFVFSLDTSVSTAYLQISSLKAEDTAVYYCARRYFDWLLGAFDIWGQGTMVTVSS VL: DIQMTQSPSSVSASVGDRVTITCRASQGISSWLAWYQQKPGKAPKLLIYAASSLQSGVPSRFSGSGSGTDFTLTISSLQPEDFATYYCQQANSFPLTFGGGTKVEIKR", "binds"),
    ("IAPB47 (antibody, human IgG4 S228P, kappa, F234A L235A, V domains shown, IgG4-PAA; whole chains) VH: EVQLVQSGAEVKKPGESLKISCKGSGYSFTSYWIGWVRQMPGKGLEWMGIIYPSDSYTRYSPSFQGQVTISADKSISTAYLQWSSLKASDTAMYYCARRNSAENYADLDYWGQGTLVTVSS VL: EIVLTQSPGTLSLSPGERATLSCRASQSISNDLNWYQQKPGKAPKLLIYYASSLQSGVPSRFSGSGSGTDFTLTINSLQPEDFATYYCQQSFTAPLTFGQGTKVEIKR", "binds"),
    ("IAPB23 (antibody, human IgG4 S228P, kappa, F234A L235A, V domains shown, IgG4-PAA; whole chains) VH: EVQLLESGGGLVQPGGSLRLSCAASGFTFSNYWMNWVRQAPGKGLEWVSAIRYDGGSKYYADSVKGRFTISRDNSKNTLYLQMNSLRAEDTAVYYCAKDAYPPYSFDYWGQGTLVTVSS VL: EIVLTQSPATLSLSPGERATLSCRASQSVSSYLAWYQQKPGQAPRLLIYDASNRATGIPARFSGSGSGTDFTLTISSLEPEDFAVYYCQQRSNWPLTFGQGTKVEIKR", "binds"),
]

Cited source: patent US20190270826A1
